Data provenance: patent EP4818187A1

# Test system: BxPC-3 (human pancreatic cancer in situ)
# Procedure Summary: In vitro inhibitory effect against human tumor cells (MTT or SRB)
# Assay type: cell-based
# Condition: BXPC-3, 72 h, BxPC-3, test method printed MTT (head: SRB), βGU-free, 3 days
# Procedure: Cells were cultured with 5% CO2 at 37°C and saturated humidity until they reached a logarithmic growth phase (usually adherent cells were nearly fully confluent). After removing adherent cells by trypsin/EDTA digestion, the cells were collected for subsequent experiments. […]
Overview of recorded pIC50 for various compounds
# reply with the number alone; pIC50 is -log10 of concentration in mol/L

Answered examples (3):
CC[C@H](C)[C@@H]([C@@H](CC(=O)N1CCC[C@H]1[C@H](OC)[C@@H](C)C(=O)N[C@H](C)[C@@H](O)c1ccccc1)OC)N(C)C(=O)[C@@H](NC(=O)[C@H](C(C)C)[N+](C)(CC)Cc1ccc(O[C@@H]2O[C@H](C(=O)[O-])[C@@H](O)[C@H](O)[C@H]2O)cc1OCc1cn(CCCCCC(=O)Nc2ccc(-c3ccc(/N=N/c4ccc5c(S(=O)(=O)[O-])cc(S(=O)(=O)[O-])c(N)c5c4O)c(C)c3)cc2C)nn1)C(C)C.[Na+].[Na+] (stereo partly shown)
7.55
CC[C@H](C)[C@@H]([C@@H](CC(=O)N1CCC[C@H]1[C@H](OC)[C@@H](C)C(=O)N[C@H](C)[C@@H](O)c1ccccc1)OC)N(C)C(=O)[C@@H](NC(=O)[C@H](C(C)C)[N+](C)(C)Cc1ccc(O[C@@H]2O[C@H](C(=O)[O-])[C@@H](O)[C@H](O)[C@H]2O)cc1OCc1cn(CCCOCC(=O)Nc2ccc(-c3ccc(/N=N/c4ccc5c(S(=O)(=O)[O-])cc(S(=O)(=O)[O-])c(N)c5c4O)c(C)c3)cc2C)nn1)C(C)C.[Na+].[Na+]
7.54
CC[C@H](C)[C@@H]([C@@H](CC(=O)N1CCC[C@H]1[C@H](OC)[C@@H](C)C(=O)N[C@H](C)[C@@H](O)c1ccccc1)OC)N(C)C(=O)[C@@H](NC(=O)[C@H](C(C)C)[N+](C)(C)Cc1ccc(O[C@@H]2O[C@H](C(=O)[O-])[C@@H](O)[C@H](O)[C@H]2O)cc1OCc1cn(CCCCCC(=O)Nc2ccc(-c3ccc(/N=N/c4ccc5c(S(=O)(=O)[O-])cc(S(=O)(=O)[O-])c(N)c5c4O)c(C)c3)cc2C)nn1)C(C)C.[Na+].[Na+]
7.36

*Q* # return recorded pIC50 for entry CC[C@H](C)[C@@H]([C@@H](CC(=O)N1CCC[C@H]1[C@H](OC)[C@@H](C)C(=O)N[C@H](C)[C@@H](OCc1ccc(O[C@@H]2O[C@H](C(=O)[O-])[C@@H](O)[C@H](O)[C@H]2O)cc1OCc1cn(CCCCCC(=O)Nc2ccc(-c3ccc(/N=N/c4ccc5c(S(=O)(=O)[O-])cc(S(=O)(=O)[O-])c(N)c5c4O)c(C)c3)cc2C)nn1)c1ccccc1)OC)N(C)C(=O)[C@@H](NC(=O)[C@H](C(C)C)N(C)C)C(C)C.[Na+].[Na+].[Na+]
*A* 7.37

*Q* Please give the documented pIC50 of CC[C@H](C)[C@@H]([C@@H](CC(=O)N1CCC[C@H]1[C@H](OC)[C@@H](C)C(=O)N[C@H](C)[C@@H](O)c1ccccc1)OC)N(C)C(=O)[C@@H](NC(=O)[C@H](C(C)C)[N+](C)(CC)Cc1ccc(O[C@@H]2O[C@H](C(=O)[O-])[C@@H](O)[C@H](O)[C@H]2O)cc1OCc1cn(CCOCCC(=O)Nc2ccc(-c3ccc(/N=N/c4ccc5c(S(=O)(=O)[O-])cc(S(=O)(=O)[O-])c(N)c5c4O)c(C)c3)cc2C)nn1)C(C)C.[Na+].[Na+] (stereo partly shown)
*A* 7.68

*Q* Read the entry CC[C@H](C)[C@@H]([C@@H](CC(=O)N1CCC[C@H]1[C@H](OC)[C@@H](C)C(=O)N[C@H](C)[C@@H](O)c1ccccc1)OC)N(C)C(=O)[C@@H](NC(=O)[C@H](C(C)C)[N+](C)(CC)Cc1ccc(O[C@@H]2O[C@H](C(=O)[O-])[C@@H](O)[C@H](O)[C@H]2O)cc1OCc1cn(CCCOCC(=O)Nc2ccc(-c3ccc(/N=N/c4ccc5c(S(=O)(=O)[O-])cc(S(=O)(=O)[O-])c(N)c5c4O)c(C)c3)cc2C)nn1)C(C)C.[Na+].[Na+] (stereo partly shown) and write its reported pIC50.
*A* 7.82

*Q* Output pIC50 of CC[C@H](C)[C@@H]([C@@H](CC(=O)N1CCC[C@H]1[C@H](OC)[C@@H](C)C(=O)N[C@H](C)[C@@H](O)c1ccccc1)OC)N(C)C(=O)[C@@H](NC(=O)[C@H](C(C)C)N(C)Cc1ccc(O[C@@H]2O[C@H](C(=O)O)[C@@H](O)[C@H](O)[C@H]2O)cc1OCc1cn(CCCCCC(=O)Nc2ccc(-c3ccc(/N=N/c4ccc5c(S(=O)(=O)O)cc(S(=O)(=O)O)c(N)c5c4O)c(C)c3)cc2C)nn1)C(C)C
*A* 6.97
